# system-name: T1, CathepsinG, from human neutrophils (human, UniProt P08311 21-244)
# T1 sequence (looked up): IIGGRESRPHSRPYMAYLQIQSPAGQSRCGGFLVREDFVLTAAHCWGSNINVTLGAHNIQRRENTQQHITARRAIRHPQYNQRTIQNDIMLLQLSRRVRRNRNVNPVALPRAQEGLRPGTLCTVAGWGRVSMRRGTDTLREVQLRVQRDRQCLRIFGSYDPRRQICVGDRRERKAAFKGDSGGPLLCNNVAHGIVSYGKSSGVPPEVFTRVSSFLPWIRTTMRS
# assay-details: cell-based or functional assay
endpoint-name: IC50
Give me the value, and tack the unit on after it.

Documented IC50 of FCTKSDPPICS (HELM PEPTIDE1{F.C.T.K.S.D.P.P.I.C.S.[dP].P}$PEPTIDE1,PEPTIDE1,2:R3-10:R3|PEPTIDE1,PEPTIDE1,1:R1-13:R2$$$V2.0; SMILES CC[C@H](C)[C@@H]1NC(=O)[C@@H]2CCCN2C(=O)[C@@H]2CCCN2C(=O)[C@H](CC(=O)O)NC(=O)[C@H](CO)NC(=O)[C@H](CCCCN)NC(=O)[C@H]([C@@H](C)O)NC(=O)[C@@H]2CSSC[C@H](NC1=O)C(=O)N[C@@H](CO)C(=O)N1CCC[C@@H]1C(=O)N1CCC[C@H]1C(=O)N[C@@H](Cc1ccccc1)C(=O)N2) [Example 4] : 91 nmol
